Values were extracted from the Immune Epitope Database (IEDB).

biological target: HLA-B*08:01; assay: IEDB peptide-MHC binding, purified MHC/direct/fluorescence; filed as Kd, often an IC50 or EC50 that approximates it; bounds were set here for any values at or beyond the usual limits of such assays; conditions: source organism: Influenza A virus (A/chicken/Hunan/fg/2004(H5N1))
Quantity: Kd

Q. State the recorded Kd for this entry: "YSHGTGTGY"
A. ≥ 20 µM

###

biological target: HLA-A*03:01; test: IEDB peptide-MHC binding, purified MHC/competitive/fluorescence; filed as Kd, often an IC50 or EC50 that approximates it; bounds were set here for any values at or beyond the usual limits of such assays; conditions: source organism: Influenza A virus (A/chicken/Fujian/25/00(H9N2))
Quantity: pKd
Recall that pKd is obtained by taking minus log10 of the concentration measured in molar.

Q. Look at this sequence and give its reported pKd. "RMKWMMAMRY"
A. 6.88

###

target: HLA-B*48:01; assay: IEDB peptide-MHC binding, purified MHC/direct/fluorescence; filed as Kd, often an IC50 or EC50 that approximates it; bounds were set here for any values at or beyond the usual limits of such assays; conditions: source organism: Brucella abortus
pKd: −log10 of the molar value.
Quantity: pKd

Q. Requested field: pKd. Item: "FSDVSHWWQ"
A. ≤ 4.70

###

biological target: HLA-B*51:01; test: IEDB peptide-MHC binding, purified MHC/direct/fluorescence; filed as Kd, often an IC50 or EC50 that approximates it; bounds were set here for any values at or beyond the usual limits of such assays; conditions: source organism: Yellow fever virus 1899/81
pKd: −log10 of the molar value.
Quantity: pKd

Q. Query: pKd; subject: "SPGRKNGSF"
A. ≤ 4.70

###

biological target: HLA-A*31:01; assay: IEDB peptide-MHC binding, purified MHC/direct/fluorescence; filed as Kd, often an IC50 or EC50 that approximates it; bounds were set here for any values at or beyond the usual limits of such assays; conditions: source organism: Influenza A virus (A/camel/Mongolia/1982(H1N1))
pKd: −log10 of the molar value.
Quantity: pKd

Q. API: value(readout=pKd, system=HLA-A*31:01) for record "EKFFPSSSY"
A. ≤ 4.70

###

target: HLA-B*46:01; assay: IEDB peptide-MHC binding, purified MHC/competitive/fluorescence; filed as Kd, often an IC50 or EC50 that approximates it; bounds were set here for any values at or beyond the usual limits of such assays; details: source organism: Vibrio vulnificus YJ016
Quantity: pKd
Value format note: pKd is -log10 of concentration (mol/L); just state the number.

Q. Look up pKd: "LAFSTRFSF"
A. 6.18

###

molecular target: HLA-A*03:01; assay: IEDB peptide-MHC binding, purified MHC/direct/fluorescence; filed as Kd, often an IC50 or EC50 that approximates it; bounds were set here for any values at or beyond the usual limits of such assays; details: source organism: Influenza A virus (A/mallard/NZ/1/97(H5N2))
Quantity: Kd

Q. Look up Kd: "IAGFIEGGW"
A. ≥ 20 µM

###

target: HLA-A*02:12; assay: IEDB peptide-MHC binding, purified MHC/direct/fluorescence; filed as Kd, often an IC50 or EC50 that approximates it; bounds were set here for any values at or beyond the usual limits of such assays; settings: source organism: Coxiella burnetii Q321
pKd: −log10 of the molar value.
Quantity: pKd

Q. // lookup pKd | system=HLA-A*02:12 | key= "DGAEGINPY"
A. ≤ 4.70

###

molecular target: HLA-A*03:01; experiment: IEDB peptide-MHC binding, purified MHC/competitive/radioactivity; filed as Kd, often an IC50 or EC50 that approximates it; bounds were set here for any values at or beyond the usual limits of such assays; details: source organism: Mammarenavirus lassaense
Quantity: Kd

Q. Using the record for "ENAVWDQCK" , report its Kd.
A. ≥ 78 µM

###

target: HLA-A*02:03; assay: IEDB peptide-MHC binding, purified MHC/competitive/radioactivity; filed as Kd, often an IC50 or EC50 that approximates it; bounds were set here for any values at or beyond the usual limits of such assays; settings: source organism: Dengue virus 2 Jamaica/1409/1983
Quantity: Kd (µM)
Record the value in µM, omitting the unit from your answer.

Q. What does the data say about its Kd? Entry: "LVISGVFPV"
A. 0.0141

###

target: HLA-B*51:01; experiment: IEDB peptide-MHC binding, purified MHC/competitive/fluorescence; filed as Kd, often an IC50 or EC50 that approximates it; bounds were set here for any values at or beyond the usual limits of such assays; details: source organism: Bacillus anthracis str. A2012
Quantity: pKd
Give only the number. pKd is defined as minus log10 of concentration in molar units.

Q. Look at this sequence and give its reported pKd. "MPLKKQILF"
A. 6.89

###

biological target: HLA-B*44:02; assay: IEDB peptide-MHC binding, purified MHC/competitive/radioactivity; filed as Kd, often an IC50 or EC50 that approximates it; bounds were set here for any values at or beyond the usual limits of such assays; details: source organism: Mammarenavirus juninense
pKd: −log10 of the molar value.
Quantity: pKd

Completed entries (count: 2):
Q. Bench note: what pKd did "KDTPGGYCL" show?
A. ≤ 4.11

Q. Record request: pKd value, item "EELSMMYESL"
A. 5.83

Moving on to another sequence below.
Q. // lookup pKd for "LESLWAPFGV"
A. ≤ 4.50

###

target: HLA-A*02:03; assay: IEDB peptide-MHC binding, purified MHC/competitive/radioactivity; filed as Kd, often an IC50 or EC50 that approximates it; bounds were set here for any values at or beyond the usual limits of such assays; conditions: source organism: Vaccinia virus WR
Quantity: Kd (nM)
Write the number in nM without appending the unit.

Take a look at these entries with their results.
Q. Please report the recorded Kd for "NMWREILSNT" .
A. 56.1

Q. Given the sequence "MLHNPTSET" , what is its reported Kd?
A. 184

Q. Consider the sequence "LIYYQNEVT" and give its measured Kd.
A. 5210

Q. Fill in: Kd of "RAGYSIVEL" is ___
A. 5390

Q. Kd for "GIRCVSNLDI" ?
A. 3870

Q. Param item = "IVAMLLTHGA" ; retrieve measured Kd.
A. 153

Q. Which Kd reading was recorded for the sequence "HILHAYCGI" ?
A. 66.5

Q. What value of measured Kd is listed for "YMSNLFDIPL" ?
A. 10.2

Further cases:
Q. Query: Kd; subject: "MAEFEDQLV"
A. 641

Q. What value of measured Kd is listed for "NIVTFINDYA" ?
A. 245

Q. // Kd lookup, key: "STSPTRTWKV"
A. 717

###

target: HLA-A*29:02; assay: IEDB peptide-MHC binding, purified MHC/competitive/radioactivity; filed as Kd, often an IC50 or EC50 that approximates it; bounds were set here for any values at or beyond the usual limits of such assays; conditions: source organism: Mammarenavirus brazilense
Quantity: Kd

Q. Record "NYPYLFEEHL" : what is its Kd with HLA-A*29:02?
A. ≥ 71.4 µM

###

biological target: HLA-A*23:01; test: IEDB peptide-MHC binding, purified MHC/direct/fluorescence; filed as Kd, often an IC50 or EC50 that approximates it; bounds were set here for any values at or beyond the usual limits of such assays; conditions: source organism: Coxiella burnetii Q321
Quantity: Kd

Q. // lookup Kd for "DGAEGINPY"
A. ≥ 20 µM

###

molecular target: HLA-A*02:03; assay: IEDB peptide-MHC binding, purified MHC/competitive/fluorescence; filed as Kd, often an IC50 or EC50 that approximates it; bounds were set here for any values at or beyond the usual limits of such assays; details: source organism: Pseudomonas sp. MIS38
Quantity: Kd (nM)
Number only, in nM; omit the unit.

Q. Entry "YMLKDSAPT" : reported Kd = ?
A. 4.2

###

target: HLA-B*27:05; assay: IEDB peptide-MHC binding, purified MHC/direct/fluorescence; filed as Kd, often an IC50 or EC50 that approximates it; bounds were set here for any values at or beyond the usual limits of such assays; settings: source organism: Brucella abortus 2308
Quantity: pKd
On this scale, pKd is minus log10 of a concentration expressed in M (mol/L).

Q. Entry "YRSGVPVEK" : reported pKd = ?
A. 7.21

###

Recorded pKd for the following sequences
target: HLA-B*53:01; assay: IEDB peptide-MHC binding, purified MHC/competitive/radioactivity; filed as Kd, often an IC50 or EC50 that approximates it; bounds were set here for any values at or beyond the usual limits of such assays; settings: source organism: Vaccinia virus WR
# reply with the number alone; pKd is -log10 of concentration in mol/L

Q. Could you share which pKd value was measured for "MPSACANGWI" ?
A. 5.28

Q. Look up pKd: "HVDGKILFV"
A. 4.94

Q. Report pKd for "DPVYISQFSY" please.
A. 4.98

Next:
Q. Field request: pKd | item: "FPDIPVNNNI"
A. 8.91
